# subject_of_test: HLA-A*0201 (human)
# test_summary: competition with 125I-labelled standard peptide on purified HLA, gel filtration
# test_conditions: remark: other sources report otherwise
experimental_readout: log10(IC50) (log10 of the value in nM)
Scale: decimal log of IC50, IC50 in nM.

Illustrative cases are given below, each with its answer.
INSERT INTO assay_data (binder, experimental_readout, observed_value) VALUES
  ('AASLSLGFLFL (modifications not checked) [peptide 63.0137 … (PAP.11)]', 'log10(IC50)', 2.36),
  ('LLLARAASL (modifications not checked) [peptide 20.0044 … (PAP.6)]', 'log10(IC50)', 2.32);

Just so you know, measured log10(IC50) for LLARAASLSL (modifications not checked) [peptide 20.0203 … (PAP.7)] came out at 2.70

Just so you know, measured log10(IC50) for TLMSAMTNLA (modifications not checked) [peptide 20.0312 … (PAP.112)] came out at 2.59

Just so you know, measured log10(IC50) for SLSLGFLFLL (modifications not checked) [peptide 1419.51 … (PAP.13)] came out at 1.60

Just so you know, measured log10(IC50) for VLAKELKFVTL (modifications not checked) [peptide 63.0142 … (PAP.30)] came out at 0.84
